The measurements presented in this section are drawn from patent US20120245137A1.

- measurement-target: T-type calcium channel (Homo sapiens, UniProt O95180)
- Sequence (O95180 whole entry): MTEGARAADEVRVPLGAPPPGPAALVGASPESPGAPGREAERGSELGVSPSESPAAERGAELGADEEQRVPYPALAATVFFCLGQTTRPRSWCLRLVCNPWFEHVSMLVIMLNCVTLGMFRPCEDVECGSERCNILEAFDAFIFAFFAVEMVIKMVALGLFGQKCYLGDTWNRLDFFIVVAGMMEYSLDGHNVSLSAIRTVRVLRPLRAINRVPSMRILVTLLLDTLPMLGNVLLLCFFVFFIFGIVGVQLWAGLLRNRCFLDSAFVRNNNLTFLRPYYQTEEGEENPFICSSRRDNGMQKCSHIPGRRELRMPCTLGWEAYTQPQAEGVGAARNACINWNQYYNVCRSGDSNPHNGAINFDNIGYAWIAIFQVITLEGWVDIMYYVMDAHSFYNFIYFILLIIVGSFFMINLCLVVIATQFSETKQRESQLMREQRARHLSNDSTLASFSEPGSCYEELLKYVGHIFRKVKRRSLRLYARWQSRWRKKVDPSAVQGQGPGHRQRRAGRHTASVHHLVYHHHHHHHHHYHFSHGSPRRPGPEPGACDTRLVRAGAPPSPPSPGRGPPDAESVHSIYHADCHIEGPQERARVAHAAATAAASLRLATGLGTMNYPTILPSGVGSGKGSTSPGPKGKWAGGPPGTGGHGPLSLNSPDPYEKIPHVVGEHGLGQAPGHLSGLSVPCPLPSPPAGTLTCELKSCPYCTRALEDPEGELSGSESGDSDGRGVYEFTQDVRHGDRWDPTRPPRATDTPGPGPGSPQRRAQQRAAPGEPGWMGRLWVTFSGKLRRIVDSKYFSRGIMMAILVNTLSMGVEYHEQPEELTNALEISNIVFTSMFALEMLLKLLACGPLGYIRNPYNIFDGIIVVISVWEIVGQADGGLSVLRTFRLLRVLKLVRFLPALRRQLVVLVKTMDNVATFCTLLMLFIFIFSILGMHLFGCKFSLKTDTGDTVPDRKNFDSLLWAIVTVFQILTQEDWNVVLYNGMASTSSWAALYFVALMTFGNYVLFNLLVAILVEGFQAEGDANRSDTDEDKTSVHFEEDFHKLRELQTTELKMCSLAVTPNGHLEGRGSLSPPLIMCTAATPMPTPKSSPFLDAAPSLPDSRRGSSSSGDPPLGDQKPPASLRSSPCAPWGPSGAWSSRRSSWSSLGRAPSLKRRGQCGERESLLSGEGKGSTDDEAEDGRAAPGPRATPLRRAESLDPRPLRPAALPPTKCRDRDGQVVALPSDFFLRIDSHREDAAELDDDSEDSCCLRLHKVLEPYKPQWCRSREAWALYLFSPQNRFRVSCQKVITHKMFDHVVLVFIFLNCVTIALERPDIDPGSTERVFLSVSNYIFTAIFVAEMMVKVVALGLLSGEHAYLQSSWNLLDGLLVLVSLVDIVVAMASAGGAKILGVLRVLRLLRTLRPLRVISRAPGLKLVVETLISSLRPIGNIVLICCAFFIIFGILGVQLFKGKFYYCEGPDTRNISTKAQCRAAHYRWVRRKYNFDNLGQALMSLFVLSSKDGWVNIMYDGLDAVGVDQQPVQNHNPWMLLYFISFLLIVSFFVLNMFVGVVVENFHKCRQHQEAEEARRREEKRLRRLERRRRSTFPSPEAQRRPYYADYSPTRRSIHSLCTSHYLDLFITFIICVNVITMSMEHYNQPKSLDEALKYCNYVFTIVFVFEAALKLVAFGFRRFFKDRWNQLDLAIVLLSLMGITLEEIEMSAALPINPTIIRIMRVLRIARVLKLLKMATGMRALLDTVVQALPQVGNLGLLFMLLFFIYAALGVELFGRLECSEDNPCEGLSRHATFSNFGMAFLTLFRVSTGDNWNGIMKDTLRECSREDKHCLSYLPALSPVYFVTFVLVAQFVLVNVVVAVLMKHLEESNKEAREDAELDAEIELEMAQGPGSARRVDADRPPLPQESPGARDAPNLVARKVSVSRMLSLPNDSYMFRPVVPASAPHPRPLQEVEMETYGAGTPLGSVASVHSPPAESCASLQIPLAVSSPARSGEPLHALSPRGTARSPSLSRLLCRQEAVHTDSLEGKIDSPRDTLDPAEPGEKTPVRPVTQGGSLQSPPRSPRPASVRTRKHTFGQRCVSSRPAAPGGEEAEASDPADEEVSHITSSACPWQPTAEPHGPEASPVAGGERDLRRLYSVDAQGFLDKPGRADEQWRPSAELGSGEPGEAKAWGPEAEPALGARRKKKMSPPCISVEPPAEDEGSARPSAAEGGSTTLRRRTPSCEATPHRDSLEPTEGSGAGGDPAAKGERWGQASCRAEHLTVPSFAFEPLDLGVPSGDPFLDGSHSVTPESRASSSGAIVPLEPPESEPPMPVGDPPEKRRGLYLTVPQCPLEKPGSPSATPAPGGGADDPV
- method: T-type channel blocking, FLIPR data (Table 6)
- Assay type: cell-based
- test-conditions: CAv3.2, closed state, read-out: CAv3.2 IC50 Closed
measurement-name: pIC50
Give bare numbers, as −log10 of the molar value.

Some solved cases for reference:
Which pIC50 value is on record for CC(C)([C@H]1C[C@@H](NS(=O)(=O)c2ccc(F)c(Cl)c2)C1)S(=O)(=O)c1cccc(C(F)(F)F)c1 ?
5.43

Which pIC50 value is on record for CC(C)([C@H]1C[C@@H](NC(=O)c2ccc(F)c(Cl)c2)C1)S(=O)(=O)c1cc(F)cc(C(F)(F)F)c1 ?
5.37

Which pIC50 value is on record for CC(C)([C@H]1C[C@H](NS(=O)(=O)c2ccc(F)c(Cl)c2)C1)S(=O)(=O)c1cccc(C(F)(F)F)c1 ?
5.51

Which pIC50 value is on record for CC(C)([C@H]1C[C@@H](NC(=O)c2ccc(Cl)c(F)c2)C1)S(=O)(=O)c1cccc(OC(F)(F)F)c1 ?
6.15

Which pIC50 value is on record for CC(C)(C1CC(CNC(=O)c2cc(C(F)(F)F)n[nH]2)C1)S(=O)(=O)c1cccc(C(F)(F)F)c1 (centres unmarked) [Compound 614] ?
5.14

Which pIC50 value is on record for O=C(NC[C@H]1C[C@H](S(=O)(=O)c2cccc(OC(F)(F)F)c2)C1)c1ccc(OCC(F)(F)F)nc1 [Compound 698] ?
5.52

Would you kindly look at the next entry?
Which pIC50 value is on record for CC(C)([C@H]1C[C@H](NS(=O)(=O)c2ccc(F)c(C(F)(F)F)c2)C1)S(=O)(=O)c1cccc(C(F)(F)F)c1 ?
5.57

###

- measurement-target: T-type calcium channel (Homo sapiens)
- method: T-type channel blocking, FLIPR data (Table 6)
- Type: cell-based
- test-conditions: CAv3.2, inactivated state, read-out: CAv3.2 IC50 Inact.
measurement-name: log10 of IC50 (log10 of the value in µM)
Log10 applied to IC50; unit prior to transform: µM.

Which log10 of IC50 value is on record for CC(C)([C@H]1C[C@@H](NS(=O)(=O)c2ccc(C(F)(F)F)nc2)C1)S(=O)(=O)c1cc(F)cc(C(F)(F)F)c1 ?
0.73

Which log10 of IC50 value is on record for CC(C)([C@H]1C[C@H](NC(=O)CC2(N)CCCCC2)C1)S(=O)(=O)c1cccc(OC(F)(F)F)c1 ?
1.00

Which log10 of IC50 value is on record for CC(C)(C1CC(CNC(=O)c2ccc(OCC(F)(F)F)nc2)C1)S(=O)(=O)c1cccc(C(F)(F)F)c1 (centres unmarked) ?
0.10

Which log10 of IC50 value is on record for CC(C)S(=O)(=O)c1cc(C(F)(F)F)cnc1C(=O)N[C@H]1C[C@@H](C(C)(C)S(=O)(=O)c2cccc(OC(F)(F)F)c2)C1 ?
0.78

---
Which log10 of IC50 value is on record for CC(C)([C@H]1C[C@@H](NC(=O)c2ccc(Cl)c(F)c2)C1)S(=O)(=O)c1cccc(OC(F)(F)F)c1 ?
-0.04

###

- measurement-target: human α1H T-type channels (Homo sapiens, UniProt O95180)
- method: T-type calcium channel block, whole cell patch clamp, α1H
- test-conditions: HEK cells stably expressing human α1H; mainly non-inactivated protocol; values above 10,000 nM represented as 10000
measurement-name: IC50

Some solved cases for reference:
Which IC50 value is on record for O=C(Nc1ccc(C(F)(F)F)cn1)[C@H]1C[C@H](S(=O)(=O)c2cccc(C(F)(F)F)c2)C1 [Compound 415] ?
> 10 µM

Which IC50 value is on record for Cn1nc(C(F)(F)F)cc1C(=O)N[C@H]1CC[C@@H](S(=O)(=O)c2cc(F)cc(C(F)(F)F)c2)CC1 [Compound 321] ?
> 10 µM

Which IC50 value is on record for O=C(Nc1cncc(Cl)c1)[C@H]1C[C@H](S(=O)(=O)c2cccc(C(F)(F)F)c2)C1 [Compound 419] ?
> 10 µM

Which IC50 value is on record for O=C(NC1CCC(S(=O)(=O)c2cccc(C(F)(F)F)c2)CC1)c1cc(F)cc(Cl)c1 (stereo not drawn) [Compound 26] ?
> 10 µM

Which IC50 value is on record for O=C(N[C@H]1CC[C@@](F)(S(=O)(=O)c2cccc(C(F)(F)F)c2)CC1)C1(C(F)(F)F)CC1 [Compound 275] ?
> 10 µM

Which IC50 value is on record for Cc1cc(C(=O)N[C@H]2CC[C@@H](S(=O)(=O)c3cccc(C(F)(F)F)c3)CC2)c(C(F)(F)F)o1 [Compound 198] ?
> 10 µM

// for each molecule in input: emit IC50
1. Cn1nc(C(F)(F)F)cc1C(=O)N[C@H]1CC[C@H](CS(=O)(=O)c2cccc(C(F)(F)F)c2)CC1 [Compound 102]
2. CC1(NC(=O)CNCC(C)(C)S(=O)(=O)c2cccc(C(F)(F)F)c2)CCC1 [Compound 459]
3. O=C(NC[C@H]1C[C@H](S(=O)(=O)c2cccc(C(F)(F)F)c2)C1)c1cn2cc(C(F)(F)F)ccc2n1 [Compound 360]

1. > 10 µM
2. > 10 µM
3. > 10 µM
